# Tested on: IGROV1 ovarian
# experiment: NCI-60 one-dose screen, 48 h
# condition_notes: 10 µM unless noted
The panel holds about 83,000 compounds, 20% with a hit somewhere; the sample as a whole holds those more often. Calls of active or inactive are those of the source. The calls were made as follows: active = growth percent below 10; inactive = the rest.
Valid outcomes are listed here; reply with one: active, inactive

What was the test verdict on COc1ccc2cnc(N)c(C#Cc3cc(C(=O)Nc4ccc(CN5CCN(C)CC5)c(C(F)(F)F)c4)cnc3C)c2c1 ? inactive

What outcome does the record of this test show for CCCCCN1CCN(C(CC(=O)c2ccccc2)C(=O)c2ccccc2)CC1 (stereo not given) ? inactive

Query: recorded result category for Cc1ccnc2c(NC(C)CCCN)cc(O)c(O)c12 (stereo not given) in this test inactive

For CCOc1ccc(N(C)c2ccc(/C=C/C3=[N+](C)c4ccccc4C3(C)C)cc2)cc1 , what call appears in the results of this test? active

Status in this test for CCCC(=O)NNc1[nH]c(-c2cc(OC)c(OC)c(OC)c2)cc1C(=O)OCC ? inactive

***
Please state the recorded outcome for this compound: CCOC(=O)C1=C(C(F)(F)F)NC(=O)NC1CN1C(=O)c2ccccc2C1=O (stereo not given) inactive

GET /call?item= CN1CCN(Cc2ccc(NC(=O)c3ccc(C#Cc4c(N)ncc5ccc(F)cc45)cc3)cc2C(F)(F)F)CC1 returns the recorded outcome of this test. active

Short answer needed: outcome of this test for NC(N)=N/N=C/c1cccc(Br)c1 ? inactive

Would you mind telling me which call this test gave N=C(N)c1ccc(-c2ccc(-c3ccc(Cl)cc3)s2)s1 ? active

Returns: the outcome recorded for CCC1(CC)C(OC)NC(Br)=C(C#N)C1(C#N)C(N)=O (stereo not given) in this assay. active
